Values were extracted from PubChem BioAssay AID1259421.

Readings of activity change, negative = inhibition for the listed compounds
Experiment: T. gondii ME49Luc in HeLa cells, luciferase assay, 72 h, no IFN-y (AID 1259421)
Details: active compounds read low, concentration not given here
About 610 (9.5%) of roughly 6,400 compounds were called active. This excerpt belongs to a sample that is enriched for actives.

| compound | activity change, negative = inhibition, % |
| --- | --- |
| Nc1ncnc2c1ncn2[C@@H]1O[C@H](COP(=O)(O)OP(=O)(O)OP(=O)(O)OP(=O)(O)OC[C@H]2O[C@@H](n3cnc4c(N)ncnc43)C(O)C2O)C(O)C1O (stereo not given in full) | -3.47 |
| CCOC(=O)CCNc1cc(N2CCc3ccccc3CC2)nc(-c2ccccn2)n1 | -57.4 |
| C[C@]12CCC3c4ccc(OC(=O)c5ccccc5)cc4CCC3C1CCC2=O (stereo not given in full) | -55.9 |
| O=C(O)CCC/C=C/CC1COC(C(F)(F)F)OC1c1ccccc1O (stereo not given) | 0.246 |
| CC12CCC3c4ccc(O)cc4CCC3C1C[C@H](O)[C@@H]2O (stereo not given in full) | -75.1 |
| C#CC1(O)CCC2C3CCC4=Cc5oncc5CC4(C)C3CCC21C (stereo not given) | -93.9 |
| C[C@]12CCC3c4ccc(OS(=O)(=O)O)cc4CCC3C1CC[C@H]2O (stereo not given in full) | -7.66 |
| Nc1ncnc2c1ncn2[C@@H]1O[C@H](C[C@@H](N)CC[C@H](N)C(=O)O)[C@@H](O)[C@H]1O | -5.35 |
| CCCCOc1c(C(=O)c2c(F)cc(C)cc2F)cnc2n[nH]cc12 | -88.2 |
| Cc1cccc(/C=C/c2ccccc2)n1 | 35.7 |
| O=C(O)C(=O)Nc1cccc(-c2nn[nH]n2)c1 | 5.48 |
| COc1cc2nccc(Oc3ccc(NC(=O)C4(C(=O)Nc5ccc(F)cc5)CC4)cc3)c2cc1OC | -93.3 |
| CCCCNCC1COc2ccccc2O1 (stereo not given) | 0.699 |
| O=C(c1ccc2nccnc2c1)N1CCCCC1 | 3.08 |
| CC(=O)c1c(O)c(C)c(O)c2c1OC1=CC(=O)C(C(C)=O)C(=O)C12C (stereo not given) | -3.87 |
| C[C@]12CC[C@@H]3c4ccc(O)cc4CC[C@H]3[C@@H]1C[C@@H](O)[C@@H]2O | -0.302 |
| CSCC1CN(/N=C/c2ccc([N+](=O)[O-])o2)C(=O)O1 (stereo not given) | 3.31 |
| [2H]C([2H])([2H])C(O)(CCO[C@@H](C)[C@H]1CC[C@H]2/C(=C/C=C3/C[C@@H](O)C[C@H](O)C3=C)CCC[C@]12C)C([2H])([2H])[2H] | 0.514 |
| Brc1cccc(Nc2ncnc3cc4nc[nH]c4cc23)c1 | 3.71 |
| NC1(C(=O)O)CC1 | 13.6 |
| CNC(=O)c1cnn(-c2nc(N)c3ncn([C@@H]4O[C@H](CO)C(O)C4O)c3n2)c1 (stereo not given in full) | 7.49 |
| OC1CCC(Nc2ncc3nc(Nc4c(F)cc(F)cc4F)n([C@H]4CCOC4)c3n2)CC1 (stereo not given in full) | -77.1 |
| Cc1nc2ccccc2n1Cc1ccc(Cl)cc1 | -8.55 |
| C[C@]1(Cn2ccnn2)C(C(=O)O)N2C(=O)CC2S1(=O)=O (stereo not given in full) | 0.084 |
| C=C1CCC2[C@](C)(CO)[C@H](O)CC[C@@]2(C)[C@@H]1C/C=C1/C(=O)OC[C@H]1O (stereo not given in full) | 9.67 |
| C=C(C)[C@@H]1CC[C@]2(C(=O)O)CC[C@]3(C)[C@H](CC[C@@H]4[C@@]5(C)CC[C@H](OC(=O)CC(C)(C)C(=O)O)C(C)(C)[C@@H]5CC[C@]43C)[C@@H]12 | -18.2 |
| CN1c2ccccc2C(=O)N2CCc3c([nH]c4ccccc34)C21 (stereo not given) | -71.6 |
| CCCOc1ccc(S(=O)(=O)N2CCN(CCO)CC2)cc1-c1nc2c(CCC)cn(CC)c2c(=O)[nH]1 | 0.0881 |
| CC(=O)[C@H]1CCC2C3C[C@H](C)C4=CC(=O)CC[C@]4(C)C3[C@@H](O)C[C@@]21C (stereo not given in full) | -2.39 |
| CCOC(=O)c1cnc[nH]1 | 7.3 |
| CN(C)Cc1ccc(-c2nc3cccc4c3n2CCNC4=O)cc1 | 4.67 |
| CC(=O)[C@@]12OC(C)(c3ccccc3)O[C@@H]1C[C@H]1[C@@H]3CCC4=CC(=O)CC[C@]4(C)[C@H]3CC[C@@]12C (stereo not given in full) | -52.9 |
| C[C@H]1CNCCCN1S(=O)(=O)c1cccc2cncc(F)c12 | -2.52 |
| CCOC(=O)C(CCc1ccccc1)NC1CCc2ccccc2N(CC(=O)O)C1=O (stereo not given) | 3.98 |
| CN(C)CCCCC(=O)Nc1ccc(NC(=S)NC(=O)c2ccc(C(C)(C)C)cc2)cc1 | 78.2 |
| C[C@@H]1O[C@@]2(CS1)CN1CCC2CC1 (racemic) | 6.56 |
| COc1ccc(S(=O)(=O)Nc2nnc(CC(C)C)s2)cc1 | 16.5 |
| CN(C)c1cc(NC(=O)CNC(C)(C)C)c(O)c2c1C[C@H]1C[C@H]3[C@H](N(C)C)C(=O)C(C(N)=O)C(=O)[C@@]3(O)C(=O)C1C2=O (stereo not given in full) | 5.81 |
| COc1cc2c(cc1O)CC[C@@H]1[C@@H]2CC[C@]2(C)[C@@H](O)CC[C@@H]12 | -44.5 |
| CN1CCc2ccccc2Cc2[nH]c3ccccc3c2CC1 | 12.1 |
